Where these numbers come from: paper PMC8769072

Recorded pIC50 values for a group of binders are listed next.
biological target: KEAP1 Kelch (kelch-like ECH-associated protein 1, Kelch domain) (human) (UniProt Q14145); assay: fluorescence polarisation; competition: unlabelled peptide in serial dilution against the protein domain (master mix at four times the KD) with its FITC-labelled probe peptide; 50 mM KPO4 or NaPO4 pH 7.5; Ki calculated from IC50
Sequence (Q14145 whole entry, the tested form may be a part): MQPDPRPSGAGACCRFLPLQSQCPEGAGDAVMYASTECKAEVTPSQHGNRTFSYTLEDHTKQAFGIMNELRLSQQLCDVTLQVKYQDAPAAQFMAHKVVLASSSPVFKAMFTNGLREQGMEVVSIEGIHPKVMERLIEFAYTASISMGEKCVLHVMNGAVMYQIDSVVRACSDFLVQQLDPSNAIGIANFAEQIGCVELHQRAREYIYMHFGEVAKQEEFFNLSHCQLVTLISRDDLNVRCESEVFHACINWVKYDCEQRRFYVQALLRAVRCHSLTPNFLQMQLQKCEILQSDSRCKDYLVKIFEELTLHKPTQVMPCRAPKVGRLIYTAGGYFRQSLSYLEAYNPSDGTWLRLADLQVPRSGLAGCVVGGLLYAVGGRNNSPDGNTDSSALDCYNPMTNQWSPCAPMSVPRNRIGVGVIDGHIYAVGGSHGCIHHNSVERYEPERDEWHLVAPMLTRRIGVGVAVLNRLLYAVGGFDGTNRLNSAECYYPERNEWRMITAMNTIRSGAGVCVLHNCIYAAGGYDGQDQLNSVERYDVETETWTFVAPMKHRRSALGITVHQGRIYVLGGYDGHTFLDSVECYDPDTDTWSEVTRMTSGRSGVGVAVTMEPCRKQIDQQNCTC
pIC50: −log10 of the molar value.
parameter.measured: pIC50

[[record]]
binder = "Ac-YDEEKGEFLPIQPAQH-NH2 [NFE2L2 77-91 peptide with an extra N-terminal Y, T80K]"
observed_value = 2.60

[[record]]
binder = "Ac-YDEKTGEFLPIQPAQH-NH2 [NFE2L2 77-91 peptide with an extra N-terminal Y, E79K]"
observed_value = 2.78

[[record]]
binder = "Ac-YMQHLQEQQQQQMHLQ-NH2 [TREF1 332-347 peptide]"
observed_value = 3.31

